Source: patent US9580418B2

List of pIC50 values.
System: pBAD in KMS.12.BM cells
Assay: Pim pBAD signaling assay in KMS.12.BM cells (Example B)
Type: cell-based
Settings: Homo sapiens, 2.5 h incubation, pBAD ELISA
pIC50: −log10 of the molar value.

Some molecules with known pIC50 results, for comparison:
CCN1CCN(c2ccc3ccc(C(=O)Nc4cnccc4N4C[C@H](C)C[C@H](N)C4)nc3c2)CC1=O ... ≥ 7.30
C[C@H]1CN(c2ccncc2NC(=O)c2ccc3ccc(-c4cnn(C)c4)cc3n2)C[C@@H](N)[C@@H]1O ... ≥ 7.30
N#CC1CCN(c2cnc3ccc(C(=O)Nc4cnccc4N4C[C@@H](N)[C@H](O)[C@@H](C5CC5)C4)nc3c2)CC1 ... 6.60 to 7.30
CCn1cc(-c2ccc3ccc(C(=O)Nc4cnccc4N4C[C@@H](N)[C@H](O)[C@@H](C)C4)nc3c2)cn1 ... ≥ 7.30
C[C@@H]1C[C@H](N)CN(c2ccncc2NC(=O)c2ccc3ccc(N4CCC(O)CC4)cc3n2)C1 ... ≥ 7.30

Any idea what its pIC50 is? The molecule is C[C@H]1CN(c2ccncc2NC(=O)c2ccc3ccc(N4CCC5(CCOCC5)CC4)cc3n2)C[C@@H](N)[C@@H]1O 6.60 to 7.30

Also need CC(C)c1cnc2ccc(C(=O)Nc3cnccc3N3C[C@H](C)C[C@H](N)C3)nc2c1 , thanks. ≥ 7.30

Ok, now C[C@@H]1C[C@H](N)CN(c2ccncc2NC(=O)c2ccc3ccc(N4CCC(c5ccncc5)CC4)cc3n2)C1 6.60 to 7.30

Request: C[C@@H]1C[C@H](N)CN(c2ccncc2NC(=O)c2ccc3ccc(N4CCC5(CCOCC5)CC4)cc3n2)C1 6.60 to 7.30

Same thing, different molecule: C[C@@H]1C[C@H](N)CN(c2ccncc2NC(=O)c2ccc3ccc(-c4ccccc4C#N)cc3n2)C1 ≥ 7.30

Then what about the molecule COc1cc(F)c(-c2cnc3ccc(C(=O)Nc4cnccc4N4C[C@H](C)C[C@H](N)C4)nc3c2)c(F)c1 ? ≥ 7.30

Then this molecule: CCn1cc(-c2cnc3ccc(C(=O)Nc4cnccc4N4C[C@@H](N)[C@H](O)[C@@H](C5CC5)C4)nc3c2)cn1 ≥ 7.30
